- measurement-protocol: Drug level in mouse brain after 3 hrs
- Assay type: ADME, tissue-based
- cond: read-out: Drug uptake
measure: tissue uptake at 3 h (%ID/g)
Answers are plain numbers, in %ID/g.

I have this compound here, `[18F]CCOCCOCCOc1ccc(C#Cc2ccc3[nH]ccc3c2)cc1` , and I need its recorded tissue uptake at 3 h.
2.1

###

- measurement-protocol: Drug level in mouse brain after 2 hrs
- Assay type: ADME, tissue-based
- cond: read-out: Drug uptake
measure: tissue uptake at 2 h (%ID/g)
Answers are plain numbers, in %ID/g.

I have this molecule here, `[18F]CCOCCOCCOc1ccc(C#Cc2ccc3c(c2)CCN3)cc1` , and I need its recorded tissue uptake at 2 h.
1.71
